Each record here notes measured HDR to indel ratio.
Test system: HEK293T cells
assay.details: Different DNAPK inhibitors on precise gene editing outcomes, Example 8
condition.context: gINS + ssDNA, DNAPK inhibitor 5 μM
API note: the answer field is a bare number with no unit suffix.

1) Cc1nccnc1C(O)c1ccc(F)c(-c2ncnc3cc(N4CCOCC4)ccc23)c1 (stereo not shown) [TLR1] | 1.4
2) Cc1cc2ncnn2cc1Nc1ncc2c(n1)n(C1CCOCC1)c(=O)n2C [AZD7648] | 1.1
3) [2H]c1nc(C)nc([2H])c1-c1cc(NC[C@@H](C)c2cccc3c(C(=O)NC)ccnc23)ncn1 | 1.1

## Task What does the data say about its HDR to indel ratio? Entry: Cc1cc2ncnn2cc1Nc1ncc2c(n1)N(C1CCOCC1)CC(=O)N2C [TLR2]
## Result 1.1

====

Test system: HEK293T cells
assay.details: Different DNAPK inhibitors on precise gene editing outcomes, Example 8
condition.context: sgRNA CD34 (gINS) + ssDNA, DNAPK inhibitor 10 μM, 70 hours post-transfection
endpoint.name: Total editing Mean
API note: the answer field is a bare number with no unit suffix.

1) Cc1cc2ncnn2cc1Nc1ncc2c(n1)n(C1CCOCC1)c(=O)n2C | 53.7

## Task What does the data say about its Total editing Mean? Entry: Cc1nccnc1C(O)c1ccc(F)c(-c2ncnc3cc(N4CCOCC4)ccc23)c1 (stereo not shown)
## Result 34.1

## Task What do we get for `[2H]c1nc(C)nc([2H])c1-c1cc(NC[C@@H](C)c2cccc3c(C(=O)NC)ccnc23)ncn1` ?
## Result 53.4

## Task What do we get for `Cc1cc2ncnn2cc1Nc1ncc2c(n1)N(C1CCOCC1)CC(=O)N2C` ?
## Result 42.4

====

Each record here notes measured Total editing Mean.
Test system: HEK293T cells
assay.details: Different DNAPK inhibitors on precise gene editing outcomes, Example 8;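 further: cells transfected with plasmids for SpCas9-EGFP, editing outcomes quantified from genomic DNA by deep targeted amplicon sequencing with bioinformatic analysis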
condition.context: sgRNA CD34 (gINS) + ssDNA, DNAPK inhibitor 5 μM, 70 hours post-transfection
API note: the answer field is a bare number with no unit suffix.

As a guide, the following entries are already answered.
1) Cc1nccnc1C(O)c1ccc(F)c(-c2ncnc3cc(N4CCOCC4)ccc23)c1 (stereo not shown) [TLR1] | 44.5
2) [2H]c1nc(C)nc([2H])c1-c1cc(NC[C@@H](C)c2cccc3c(C(=O)NC)ccnc23)ncn1 | 55.0
3) Cc1cc2ncnn2cc1Nc1ncc2c(n1)N(C1CCOCC1)CC(=O)N2C [TLR2] | 50.9

Now for a further compound.
## Task What does the data say about its Total editing Mean? Entry: Cc1cc2ncnn2cc1Nc1ncc2c(n1)n(C1CCOCC1)c(=O)n2C [AZD7648]
## Result 57.5
